Record form. Attribute: MIC. Fill in for each entry.
# System: Staphylococcus aureus
# assay-comment: Antimicrobial activity against methicillin-resistant Staphylococcus aureus CCARM 3114 after 20 hrs by twofold serial broth dilution method
# Format: functional
# setup-conditions: CCARM 3114, 20 h

# input Entry under review: Oc1ccc(/C=N/C2CCCCC2)c(O)c1 . Reported MIC?
# output 128 µg/mL

# input Entry under review: C/C(=N\Nc1nc(C)cs1)c1cccc(O)c1 . Reported MIC?
# output 256 µg/mL

# input Entry under review: COc1ccc2c(c1OC)C(=O)OC2C(C)C(=O)c1ccc(O)c(O)c1 (centres undefined) . Reported MIC?
# output > 1020 µg/mL

# input Entry under review: C=C/C(C)=C/[C@@]1(C)SC(=O)C(C)=C1O . Reported MIC?
# output 128 µg/mL

Where do the numbers come from? From ChEMBL document CHEMBL1152734.
